FYI, the data here is from patent US7820759B2.

experiment: Transition of paclitaxel concentrations in the rat plasma; type: in vivo; conditions: intravenous, blood drawing time 10 min, 5 mg/kg paclitaxel equivalent, tail vein, male SD rats
endpoint.label: concentration at 10 min (ng/mL)

{"smiles.representation": "CC(=O)O[C@H]1C(=O)[C@@]2(C)[C@H]([C@H](OC(=O)c3ccccc3)[C@]3(O)C[C@H](OC(=O)[C@H](O)[C@@H](NC(=O)c4ccccc4)c4ccccc4)C(C)=C1C3(C)C)[C@]1(OC(C)=O)CO[C@@H]1C[C@@H]2O", "readout.number": 1050}

---

Experiment: Transition of paclitaxel concentrations in the rat plasma
Format: in vivo
Settings: intravenous, blood drawing time 360 min, 5 mg/kg paclitaxel equivalent, tail vein, male SD rats
Procedure: Micellar preparation 10 from Example 9 was diluted with normal saline solution to make an aqueous solution having a concentration of 2.5 mg/mL in terms of paclitaxel. […] The ether layer was recovered, dried up, and then dissolved in 50 μL of actonitrile, followed by quantitating paclitaxel using HPLC.
endpoint.label: concentration at 360 min (ng/mL)

{"smiles.representation": "CC(=O)O[C@H]1C(=O)[C@@]2(C)[C@H]([C@H](OC(=O)c3ccccc3)[C@]3(O)C[C@H](OC(=O)[C@H](O)[C@@H](NC(=O)c4ccccc4)c4ccccc4)C(C)=C1C3(C)C)[C@]1(OC(C)=O)CO[C@@H]1C[C@@H]2O", "unit.descriptor": "ng/mL", "readout.number": 35}
